The reported measurements were obtained from patent US10829490B2.

biological target: CDK6/Cyclin D3 (Homo sapiens (Human), UniProt Q00534); experiment: CDK6/Cyclin D3 kinase assay (Biological Table 3)
Sequence (Q00534 whole entry): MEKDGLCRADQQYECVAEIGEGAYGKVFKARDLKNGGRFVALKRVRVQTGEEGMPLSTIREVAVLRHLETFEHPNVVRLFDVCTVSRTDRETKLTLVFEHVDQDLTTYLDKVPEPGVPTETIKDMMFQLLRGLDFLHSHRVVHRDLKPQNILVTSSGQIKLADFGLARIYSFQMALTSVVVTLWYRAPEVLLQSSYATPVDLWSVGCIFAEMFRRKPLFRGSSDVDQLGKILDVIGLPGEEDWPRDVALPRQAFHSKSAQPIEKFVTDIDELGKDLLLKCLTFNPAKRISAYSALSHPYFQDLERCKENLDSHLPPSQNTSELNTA
Sequence (P30281 whole entry partner): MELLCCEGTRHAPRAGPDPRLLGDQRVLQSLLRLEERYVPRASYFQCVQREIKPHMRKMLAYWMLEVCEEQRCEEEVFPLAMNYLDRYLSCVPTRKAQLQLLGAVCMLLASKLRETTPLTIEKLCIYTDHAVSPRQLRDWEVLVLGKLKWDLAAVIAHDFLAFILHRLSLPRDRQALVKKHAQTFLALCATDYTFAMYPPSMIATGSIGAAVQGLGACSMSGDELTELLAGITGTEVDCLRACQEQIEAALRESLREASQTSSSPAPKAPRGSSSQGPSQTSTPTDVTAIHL
Measured Quantity: IC50

substance_smiles=CN1CCN(c2ccc(Nc3ncc4cc5n(c4n3)C3(C=NC5)CCCCC3)nc2)CC1 recorded_value="0.001 µM"
substance_smiles=CN1CCN(c2cnc(Nc3ncc4cc5n(c4n3)C3(CCCCC3)CNC5=O)nc2)CC1 recorded_value="0.06 µM"
substance_smiles=CO[C@H]1CC[C@]2(CC1)CNC(=O)c1cc3cnc(Nc4ccc(N5CCN(C)CC5)cn4)nc3n12 recorded_value="0.09 µM"
substance_smiles=CO[C@H]1CC[C@@]2(CC1)CNC(=O)c1cc3cnc(Nc4ccc(N5CCN(C)CC5)cn4)nc3n12 recorded_value="0.01 µM"
substance_smiles=CN1CCN([C@H]2CC[C@@H](Nc3ncc4cc5n(c4n3)C3(CCCCC3)CNC5=O)CC2)CC1 recorded_value="0.8 µM"

Take each entry in turn and give its IC50.
1. CN1CCN(c2ccc(Nc3ncc4c(n3)N3C(=NCC35CCCCC5)C(=O)N4)nc2)CC1
2. O=C1NCC2(CCCCC2)n2c1cc1cnc(N[C@H]3CC[C@H](N4CCN(CC5CC5)CC4)CC3)nc12

21 µM
0.03 µM

Which IC50 reading was recorded for the molecule `CN1CCN([C@H]2CC[C@H](Nc3ncc4cc5n(c4n3)C3(CCCCC3)CNC5=O)CC2)CC1` ? 0.04 µM

* * *

Would you mind telling me the reported pIC50 of each entry?
biological target: CDK6/Cyclin D3 (Homo sapiens (Human), UniProt Q00534); assay: CDK6/Cyclin D3 kinase assay (Biological Table 3)
One number for each entry, as −log10 of the molar value.

Check out these entries, answers already filled in.
substance_smiles=CN1CCN(c2ccc(Nc3ncc4cc5n(c4n3)C3(CCCCC3)Cn3ccnc3-5)nc2)CC1 recorded_value=7.00
substance_smiles=O=C1NCC2(CCCCC2)n2c1cc1cnc(N[C@H]3CC[C@@H](N4CCN(CC5CC5)CC4)CC3)nc12 recorded_value=6.30
substance_smiles=CN1CCN(c2ccc(Nc3ncc4cc5n(c4n3)C3(CCCCC3)C(=O)NC5)nc2)CC1 recorded_value=7.70

Kindly review the next molecule as well.
Which pIC50 reading was recorded for the molecule `CN1CCN(c2ccc(Nc3ncc4cc5n(c4n3)C3(CCOCC3)CNC5=O)nc2)CC1` ? 7.70

* * *

target: CDK4/CyclinD1 (Homo sapiens (Human), UniProt P11802); experiment: CDK4/cyclinD1 kinase assay, microfluidic kinase detection (Caliper, Nanosyn); conditions: 12-point dose-response, ATP at Km (200 μM), enzyme 1 nM, incubation 10 hr; read-out: CDK4/Cyclin D1
Sequence (P11802 whole entry): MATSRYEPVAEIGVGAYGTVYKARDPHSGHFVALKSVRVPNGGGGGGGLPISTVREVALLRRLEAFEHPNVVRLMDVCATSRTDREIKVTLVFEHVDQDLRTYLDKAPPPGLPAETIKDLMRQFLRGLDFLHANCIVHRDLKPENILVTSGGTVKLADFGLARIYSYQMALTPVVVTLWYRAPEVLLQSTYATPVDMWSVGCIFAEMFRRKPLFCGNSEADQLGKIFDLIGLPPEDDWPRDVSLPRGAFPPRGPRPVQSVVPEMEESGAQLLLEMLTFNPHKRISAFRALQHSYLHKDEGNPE
Sequence (P24385 whole entry partner): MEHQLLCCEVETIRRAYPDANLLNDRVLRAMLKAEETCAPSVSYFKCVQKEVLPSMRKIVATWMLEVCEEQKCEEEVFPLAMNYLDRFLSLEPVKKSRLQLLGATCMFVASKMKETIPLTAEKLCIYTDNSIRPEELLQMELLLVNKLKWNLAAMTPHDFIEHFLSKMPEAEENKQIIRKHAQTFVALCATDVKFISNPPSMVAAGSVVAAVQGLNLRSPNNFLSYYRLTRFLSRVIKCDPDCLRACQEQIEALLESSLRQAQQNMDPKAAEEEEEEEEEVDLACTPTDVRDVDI
Flag rule - IC50 less than 30 nM flags satisfied; the remaining entries get not satisfied.

Field: example entries. Status: answers known.
substance_smiles=CN1CCN(c2cnc(Nc3ncc4cc5n(c4n3)C3(CCCCC3)CNC5=O)nc2)CC1 cat=satisfied
substance_smiles=CN1CCN(c2ccc(Nc3ncc4cc5n(c4n3)C3(CCOCC3)CNC5=O)nc2)CC1 cat=satisfied
substance_smiles=CN1CCN([C@H]2CC[C@@H](Nc3ncc4cc5n(c4n3)C3(CCCCC3)CNC5=O)CC2)CC1 cat="not satisfied"
substance_smiles=O=C1NCC2(CCCCC2)n2c1cc1cnc(N[C@H]3CC[C@@H](N4CCN(CC5CC5)CC4)CC3)nc12 cat="not satisfied"
substance_smiles=CO[C@H]1CC[C@@]2(CC1)CNC(=O)c1cc3cnc(Nc4ccc(N5CCN(C)CC5)cn4)nc3n12 cat=satisfied
substance_smiles=O=C1NCC2(CCCCC2)n2c1cc1cnc(N[C@H]3CC[C@H](N4CCN(CC5CC5)CC4)CC3)nc12 cat=satisfied
substance_smiles=CO[C@H]1CC[C@]2(CC1)CNC(=O)c1cc3cnc(Nc4ccc(N5CCN(C)CC5)cn4)nc3n12 cat="not satisfied"
substance_smiles=CN1CCN(c2ccc(Nc3ncc4cc5n(c4n3)C3(C=NC5)CCCCC3)nc2)CC1 cat=satisfied
substance_smiles=CN1CCN([C@H]2CC[C@H](Nc3ncc4cc5n(c4n3)C3(CCCCC3)CNC5=O)CC2)CC1 cat=satisfied
substance_smiles=CN1CCN(c2ccc(Nc3ncc4c(n3)N3C(=NCC35CCCCC5)C(=O)N4)nc2)CC1 cat="not satisfied"

Okay, next one:
Find out if reported IC50 for `CN1CCN(c2ccc(Nc3ncc4cc5n(c4n3)C3(CCCCC3)C(=O)NC5)nc2)CC1` is less than 30 nM satisfied

* * *

target: CDK9/Cyclin T (Homo sapiens (Human)); test: CDK9/Cyclin T kinase assay (Biological Table 3)
Sequence (P50750 whole entry): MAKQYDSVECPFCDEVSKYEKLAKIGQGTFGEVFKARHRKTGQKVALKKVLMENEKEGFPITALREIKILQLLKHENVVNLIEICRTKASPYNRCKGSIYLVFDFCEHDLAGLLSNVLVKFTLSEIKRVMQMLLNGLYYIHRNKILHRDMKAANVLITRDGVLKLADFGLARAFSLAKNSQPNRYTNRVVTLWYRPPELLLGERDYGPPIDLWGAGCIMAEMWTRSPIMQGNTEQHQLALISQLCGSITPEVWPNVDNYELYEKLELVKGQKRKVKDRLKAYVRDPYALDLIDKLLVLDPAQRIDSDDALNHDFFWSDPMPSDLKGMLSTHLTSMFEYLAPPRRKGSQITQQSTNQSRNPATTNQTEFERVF
Sequence (O60563 whole entry partner): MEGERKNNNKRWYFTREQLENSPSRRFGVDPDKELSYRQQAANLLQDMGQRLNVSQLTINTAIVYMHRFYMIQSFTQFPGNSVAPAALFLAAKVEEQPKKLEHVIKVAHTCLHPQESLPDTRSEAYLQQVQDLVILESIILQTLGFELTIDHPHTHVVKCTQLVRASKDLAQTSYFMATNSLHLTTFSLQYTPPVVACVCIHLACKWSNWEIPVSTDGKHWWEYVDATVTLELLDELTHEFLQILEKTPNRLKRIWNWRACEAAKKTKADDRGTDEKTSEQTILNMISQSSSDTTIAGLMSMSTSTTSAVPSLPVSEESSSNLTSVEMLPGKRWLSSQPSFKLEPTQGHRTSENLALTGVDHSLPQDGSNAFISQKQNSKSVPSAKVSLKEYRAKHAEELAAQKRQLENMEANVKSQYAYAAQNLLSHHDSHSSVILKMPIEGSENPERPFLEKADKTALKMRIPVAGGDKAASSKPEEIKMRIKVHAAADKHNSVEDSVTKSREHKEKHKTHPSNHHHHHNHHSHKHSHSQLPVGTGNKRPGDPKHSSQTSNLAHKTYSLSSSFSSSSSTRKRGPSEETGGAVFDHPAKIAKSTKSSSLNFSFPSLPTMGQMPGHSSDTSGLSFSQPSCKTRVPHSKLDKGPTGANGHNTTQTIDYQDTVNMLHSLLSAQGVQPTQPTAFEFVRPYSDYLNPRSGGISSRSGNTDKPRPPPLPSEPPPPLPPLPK
Measured Quantity: log10 of IC50 (log10 of the value in nM)
Please note: log10 values; quantity IC50; unit nM.

Take each entry in turn and give its log10 of IC50.
1. CO[C@H]1CC[C@]2(CC1)CNC(=O)c1cc3cnc(Nc4ccc(N5CCN(C)CC5)cn4)nc3n12
2. CN1CCN([C@H]2CC[C@@H](Nc3ncc4cc5n(c4n3)C3(CCCCC3)CNC5=O)CC2)CC1
3. CN1CCN(c2ccc(Nc3ncc4cc5n(c4n3)C3(C=NC5)CCCCC3)nc2)CC1
4. CN1CCN(c2ccc(Nc3ncc4cc5n(c4n3)C3(CCCCC3)Cn3ccnc3-5)nc2)CC1
5. CN1CCN([C@H]2CC[C@H](Nc3ncc4cc5n(c4n3)C3(CCCCC3)CNC5=O)CC2)CC1
6. CN1CCN(c2ccc(Nc3ncc4cc5n(c4n3)C3(CCOCC3)CNC5=O)nc2)CC1

1. 2.30
2. 1.85
3. 1.60
4. 3.80
5. 0.48
6. 2.60

* * *

molecular target: CDK4/CycD (Homo sapiens (Human), UniProt P11802); test: CDK4/CycD kinase inhibition (Biological Table 1)
Would you mind telling me the reported IC50 of each entry?

molecule="CN1CCN(c2ccc(Nc3ncc4c(n3)N3C(CC4)C(=O)NCC3(C)C)nc2)CC1 (stereo not drawn)" measured_quantity=IC50 recorded_value="> 100 µM"
molecule="CN1CCN(c2ccc(Nc3ncc4c(n3)N3C(CC4=O)C(=O)NCC34CCCCC4)nc2)CC1 (stereo not drawn)" measured_quantity=IC50 recorded_value="> 100 µM"

Kindly review the next molecule as well.
Which IC50 reading was recorded for the molecule CN1CCN(c2ccc(Nc3ncc4c(n3)N3C(CC4=O)C(=O)NCC34CCCC4)nc2)CC1 (stereo not drawn) ? > 100 µM
